As shown below, each of these compounds has a reported growth inhibition value.
System: SUDIPGVI (diffuse intrinsic pontine glioma line)
Assay: growth inhibition (% activity, log2 RLU normalised to DMSO / staurosporine); higher = more growth inhibition
Settings: 33 µM
Give the value in % but do not write % after it.

// below: answered compounds
CC(S)C(=O)NCC(=O)O (stereo unspecified) | -0.507
CO[C@H]1O[C@@H]2O[C@@]3(C)CC[C@H]4[C@H](C)CC[C@@H]([C@H]1C)[C@@]24OO3 | 1.25
Nc1ccn([C@H]2CC[C@@H](CO)O2)c(=O)n1 | 0.499
C[C@@H](O)[C@H]1C(=O)N2C(C(=O)OCOC(=O)C(C)(C)C)=C(SC3CN(C4=NCCS4)C3)[C@H](C)[C@H]12 | 2.12
NC(=O)c1ncn([C@@H]2O[C@H](CO)[C@@H](O)[C@H]2O)n1 | 2.19

Form: compound = CCCCNC(=O)NS(=O)(=O)c1ccc(C)cc1 ; growth inhibition = 2.09

Short answer for COc1cc(C(=O)NC2CCCNC2)cc(OC)c1OC (stereo unspecified) : growth inhibition was 0.918

growth inhibition in this record for CC(C)NCC(O)COc1ccc(COCCOC(C)C)cc1 (stereo unspecified) : -2.42
